test: Phase I study CXR1002-001: plasma pharmacokinetics (LC-MS/MS); type: in vivo, human; details: human, plasma, oral, 600 mg, Patient 022, 600 mg, person, plasma, 339 hr; read-out: Concentration
parameter: concentration at 339 h (µM)
Provide the reading as a plain figure in µM.

IN: Return concentration at 339 h (reported value) for this molecule: O=C(O)C(F)(F)C(F)(F)C(F)(F)C(F)(F)C(F)(F)C(F)(F)C(F)(F)F [CXR1002]
OUT: 433

###

experiment: Phase I study CXR1002-001: plasma pharmacokinetics (LC-MS/MS); assay type: in vivo, human; conditions: human, plasma, oral, 200 mg, Patient 009 Dose 200 mg; 842 hr; read-out: Concentration
parameter: concentration at 842 h (µM)
Give the quantity in µM, number only.

IN: Read off the recorded concentration at 842 h for `O=C(O)C(F)(F)C(F)(F)C(F)(F)C(F)(F)C(F)(F)C(F)(F)C(F)(F)F`
OUT: 346
